molecular target: PDK1 (His6-PDK1(Δ1-50)) (Homo sapiens (Human), UniProt O15530); test: Test for the inhibition of PDK1 (enzymatic, flashplate, 33P-ATP); format: biochemical
Sequence (O15530 51-556): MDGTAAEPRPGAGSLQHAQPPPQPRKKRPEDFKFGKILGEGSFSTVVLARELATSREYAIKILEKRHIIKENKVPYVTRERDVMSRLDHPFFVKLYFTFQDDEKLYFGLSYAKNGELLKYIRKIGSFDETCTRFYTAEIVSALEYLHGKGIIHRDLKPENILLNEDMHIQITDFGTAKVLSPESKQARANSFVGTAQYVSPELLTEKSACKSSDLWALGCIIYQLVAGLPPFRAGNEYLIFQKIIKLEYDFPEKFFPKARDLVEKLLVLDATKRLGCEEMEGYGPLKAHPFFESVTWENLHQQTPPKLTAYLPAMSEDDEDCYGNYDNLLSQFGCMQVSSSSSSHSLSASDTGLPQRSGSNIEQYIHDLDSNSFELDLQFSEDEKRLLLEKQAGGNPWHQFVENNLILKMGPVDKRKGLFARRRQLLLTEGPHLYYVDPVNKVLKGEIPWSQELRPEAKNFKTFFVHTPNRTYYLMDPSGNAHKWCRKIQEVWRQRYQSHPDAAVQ
quantity_name: pIC50
# pIC50 = -log10(concentration in molar units)

GET /values?readout=pIC50&item= Cn1cc(-c2cnc3[nH]cc(-c4cc(N(CCC#N)c5ccccc5Cl)nc(N)n4)c3c2)cn1 [A30]
8.04

----------
Kindly supply the reported IC50 values for the records listed here.
molecular target: PDK1 kinase in PC3 cells (PKB phosphorylation at Thr 308) (Homo sapiens (Human), UniProt O15530); test: Cellular testing of PDK1 kinase inhibitors in PC3 cells (Luminex, phospho-T308-PKB); format: cell-based; settings: PKB phosphorylation at Thr 308 in PC3 cells; read-out: cellular IC50
Sequence (O15530 whole entry): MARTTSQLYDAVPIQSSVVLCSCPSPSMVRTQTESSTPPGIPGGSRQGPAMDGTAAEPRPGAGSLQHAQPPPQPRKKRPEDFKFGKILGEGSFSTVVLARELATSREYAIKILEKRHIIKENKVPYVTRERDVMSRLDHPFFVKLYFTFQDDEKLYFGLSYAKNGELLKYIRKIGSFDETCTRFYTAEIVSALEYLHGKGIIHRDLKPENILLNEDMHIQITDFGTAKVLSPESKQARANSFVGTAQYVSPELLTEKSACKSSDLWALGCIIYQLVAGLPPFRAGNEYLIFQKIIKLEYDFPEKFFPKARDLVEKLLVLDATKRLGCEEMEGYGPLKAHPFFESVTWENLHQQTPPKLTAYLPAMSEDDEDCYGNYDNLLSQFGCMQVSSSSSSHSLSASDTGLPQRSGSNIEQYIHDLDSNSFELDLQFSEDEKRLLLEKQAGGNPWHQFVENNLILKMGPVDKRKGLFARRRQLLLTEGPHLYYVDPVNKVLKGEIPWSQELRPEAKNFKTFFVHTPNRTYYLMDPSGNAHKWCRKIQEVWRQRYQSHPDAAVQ
Numbers only here, please. The scale is nM.

What does the data say about its IC50? Entry: Cn1cc(-c2cnc3[nH]cc(-c4cc(N(CCN5CCOCC5)c5cccc(F)c5)nc(N)n4)c3c2)cn1 [A28]
9700

// lookup IC50 for CCN(c1ccc(Cl)cc1)c1cc(-c2c[nH]c3ncc(-c4cnn(C)c4)cc23)nc(N)n1 [A13]
120

Which measured IC50 value corresponds to Cn1cc(-c2cnc3[nH]cc(-c4cc(N(CCO)c5ccccc5F)nc(N)n4)c3c2)cn1 [A26] ?
23

Can you look up the measured IC50 of CCN(Cc1ccccc1)c1cc(-c2c[nH]c3ncc(-c4cnn(C)c4)cc23)nc(N)n1 [A14] for me?
530

Need IC50 of Cn1cc(-c2cnc3[nH]cc(-c4cc(N(CCO)c5ccc(F)cc5F)nc(N)n4)c3c2)cn1 [A25] , thanks.
35

# lookup: IC50 of CN(c1cccc(F)c1)c1cc(-c2c[nH]c3ncc(-c4cnn(C)c4)cc23)nc(N)n1 [A1]
280

----------
target: PDK1 (His6-PDK1(Δ1-50)) (Homo sapiens (Human), UniProt O15530); assay: Test for the inhibition of PDK1 (enzymatic, flashplate, 33P-ATP); format: biochemical; conditions: enzymatic PDK1 inhibition assay; read-out: enzymatic IC50
quantity_name: pIC50
In simple prose, pIC50 is minus the logarithm base ten of a concentration in moles per litre.

// pIC50 lookup, key: "Cn1cc(-c2cnc3[nH]cc(-c4cc(N(CCO)c5ccccc5F)nc(N)n4)c3c2)cn1"
8.30

Record request: pIC50 value, item "CCN(Cc1ccccc1)c1cc(-c2c[nH]c3ncc(-c4cnn(C)c4)cc23)nc(N)n1"
7.29

Field request: pIC50 | item: "COc1ccc(N(C[C@H](O)CO)c2cc(-c3c[nH]c4ncc(-c5cnn(C)c5)cc34)nc(N)n2)cc1"
7.62

Can you share its pIC50? I mean this molecule: "Cn1cc(-c2cnc3[nH]cc(-c4cc(C5(c6ccccc6)CCCC5)nc(N)n4)c3c2)cn1"
6.89

----------
target: PDK1 (His6-PDK1(Δ1-50)) (Homo sapiens (Human)); assay: Test for the inhibition of PDK1 (enzymatic, flashplate, 33P-ATP); format: biochemical; details: Table I comparison; read-out: PDK1 inhibition assay enzymatic IC50
quantity_name: pIC50
Kindly note that pIC50 refers to -log10 of the concentration in mol/L and answer with the value alone.

Request - read-out pIC50 | tested on PDK1 (His6-PDK1(Δ1-50)) (Homo sapiens (Human)) | molecule "Cn1cc(-c2cnc3[nH]cc(-c4cc(N(CCCN)c5ccccc5)nc(N)n4)c3c2)cn1"
8.06

Form: Entry = CC(=O)NCCCc1cc(-c2c[nH]c3ncc(-c4cnn(C(C)C)c4)cc23)nc(N)n1 [reference compound] | System = PDK1 (His6-PDK1(Δ1-50)) (Homo sapiens (Human)) | pIC50 = ____
6.62

Entry "Cn1cc(-c2cnc3[nH]cc(-c4cc(N(CCO)c5ccccc5)nc(N)n4)c3c2)cn1" , system PDK1 (His6-PDK1(Δ1-50)) (Homo sapiens (Human)): what pIC50 was measured?
7.89

Notebook entry, PDK1 (His6-PDK1(Δ1-50)) (Homo sapiens (Human)) assay: pIC50 of "Cn1cc(-c2cnc3[nH]cc(-c4cc(C5(c6ccccc6)CCCC5)nc(N)n4)c3c2)cn1" = ?
6.89

pIC50 of CC(C)n1cc(-c2cnc3[nH]cc(-c4cc(C(C)(O)c5ccccc5)nc(N)n4)c3c2)cn1 (centres unmarked) [reference compound] on PDK1 (His6-PDK1(Δ1-50)) (Homo sapiens (Human))?
7.27

Test system PDK1 (His6-PDK1(Δ1-50)) (Homo sapiens (Human)); read-out pIC50; what value for "CC(=O)NCCCN(c1ccccc1)c1cc(-c2c[nH]c3ncc(-c4cnn(C)c4)cc23)nc(N)n1" ?
7.66

Short answer please: pIC50, PDK1 (His6-PDK1(Δ1-50)) (Homo sapiens (Human)), entry CC(C)n1cc(-c2cnc3[nH]cc(-c4cc(C5(O)CCCC5)nc(N)n4)c3c2)cn1 [reference compound]
7.21

Form field: pIC50 recorded for CC(C)Cn1cc(-c2cnc3[nH]cc(-c4cc(CCCN)nc(N)n4)c3c2)cn1 [reference compound] with PDK1 (His6-PDK1(Δ1-50)) (Homo sapiens (Human)) (enter value)
7.96

Entry source: patent US8664236B2
